experiment: protein stability index of a GFP-peptide fusion (yeast GPS) (PSI 1-4); higher = more stable; sorted into four equal gates, so the index is relative within each strain; settings: san1∆
Quick rule: protein stability index of at least 2 means met, below that means not met.

| query.sequence | class.label |
| --- | --- |
| IQQLHSVLNPFLLRRVK [ISW2] | met |
| LVHDGLARGLRESTKAL [RPS12] | met |
| VLRLRGALVDRTQPWSI [RPS0A] | met |

(Q) Given the entry FGKLAFPTRLGQGYRKV [YJL039C/NUP192] , answer whether its protein stability index meets or surpasses 2.
(A) not met

(Q) Please tell me: is the sequence RFELHGDMTNSDAQSNL [REC8] at or over 2 in terms of protein stability index?
(A) met

(Q) Reported protein stability index at or above 2? HSRKMNLTRGINLRKVA [RPT6]
(A) not met

(Q) Does the sequence AHLYMLEPSGSYWGYKG [PRE10] have recorded protein stability index that is 2 or more?
(A) met

###

test: protein stability index of a GFP-peptide fusion (yeast GPS) (PSI 1-4); higher = more stable; sorted into four equal gates, so the index is relative within each strain; conditions: ubr1∆
Mark false (0) for protein stability index values under 3, and true (1) for everything at or above.

| query.sequence | class.label |
| --- | --- |
| SNNQVIKMQRQFSQLND [MED6] | true (1) |

(Q) Would you say DVNIIGKDRIAINVFPE [RPO31] shows protein stability index at minimum 3?
(A) true (1)

(Q) Identify whether the reported protein stability index of the following sequence is 3 or greater: VRDELRKVEKEKNEKER [UBP6]
(A) true (1)

(Q) Does protein stability index meet or surpass 3 for YKWTQGINNLSEIWDVS [PRP8] ?
(A) false (0)

(Q) Does the sequence GRYLLTPPDDLHPYVPS [SRB8] have recorded protein stability index that is 3 or more?
(A) false (0)

(Q) Record QMMSKGIGALFTQQELQ [RPC34] ; criterion: protein stability index no lower than 3. Met?
(A) true (1)

(Q) Form field: protein stability index at least 3? Entry: NFIIWINSIDTTESSDL [GRR1]
(A) false (0)

(Q) Evaluate LFGNKPTTTTGGLFGNS [YGR119C/NUP57] : protein stability index at minimum 3?
(A) true (1)

(Q) Does ETASFIPTKESLTRDFE [YIL149C/MLP2] have a reported protein stability index of at least 3?
(A) false (0)

(Q) Reported protein stability index reaches at least 3 for CDYYNTFLLNNKNIDIG [RPN2] ?
(A) false (0)

(Q) Given the entry LGVKSRLLEKSELPDIY [SNF2] , answer whether its protein stability index meets or surpasses 3.
(A) true (1)

(Q) Exam item: decide whether the reported protein stability index for IYSPLHSFIKMLQMKGK [SIR2] is at least 3.
(A) false (0)

(Q) Would you say SNIGNNSINNNNIKNGT [YDL088C/ASM4] shows protein stability index at minimum 3?
(A) false (0)

###

experiment: protein stability index of a GFP-peptide fusion (yeast GPS) (PSI 1-4); higher = more stable; sorted into four equal gates, so the index is relative within each strain; settings: pdr5∆
protein stability index below 3 gives condition not met; protein stability index at or above it gives condition met.

| query.sequence | class.label |
| --- | --- |
| RNISFSDNNSRIMSRNF [SWI1] | condition not met |
| NNTTTTSTKPSFSFGAP [YOR098C/NUP1] | condition met |
| NNNNSTRPQMPSRTRET [GRR1] | condition met |
| QIEGPFLIIVPKSTLDN [ISW2] | condition not met |
| EPIYGVQYKLLSISVPS [SNU114] | condition not met |
| MRILPRETDPLVYNMTS [RPT4] | condition not met |
| ESLYDLIEFQPSQGVHY [MED6] | condition not met |
| MVNIGLHNLNEYQIVYY [RGR1] | condition not met |

Moving on to another sequence below.
(Q) For this sequence, is measured protein stability index 3 or higher? NVNNNNIGQQQVKKPRK [SWI1]
(A) condition met

###

assay: protein stability index of a GFP-peptide fusion (yeast GPS) (PSI 1-4); higher = more stable; sorted into four equal gates, so the index is relative within each strain; conditions: san1∆
reported.property: protein stability index
Answer as a number with no unit attached.

(Q) Need protein stability index, item ERFTKSKTLSLIQSYSL [FAS1]
(A) 1.93

###

test: protein stability index of a GFP-peptide fusion (yeast GPS) (PSI 1-4); higher = more stable; sorted into four equal gates, so the index is relative within each strain; conditions: san1∆
Please mark y if the recorded protein stability index is equal to or greater than 2, and n if it falls below.

For orientation, consider the following solved cases.
| query.sequence | class.label |
| --- | --- |
| GLNWLISLHENKLSGIL [ISW2] | y |
| IRVTNSFALPFEEDEKN [RPN8] | y |
| FPKIDSLAQNDCNSALD [RPN5] | y |
| ATSDNKTTNTTPSFSFG [YJL041W/NSP1] | y |
| PLSRINENENFGYDIPL [YML103C/NUP188] | y |

Switching to the query record.
(Q) Does protein stability index meet or surpass 2 for DSTIGNSKVDMKYDIFA [IRR1] ?
(A) y

###

Below, each entry is listed with its recorded protein stability index.
assay: protein stability index of a GFP-peptide fusion (yeast GPS) (PSI 1-4); higher = more stable; sorted into four equal gates, so the index is relative within each strain; conditions: pdr5∆
# respond with the number and nothing more

Worked cases, answers included:
| query.sequence | result.number |
| --- | --- |
| NKIIPNVGLCITIYDLL [RPC25] | 1.29 |
| MAYTSHLSSKTGLHFGR [QCR10] | 2.78 |
| GAHGYSGFYTFSLLDHH [PRE1] | 2.44 |
| MSKIQVAHSSRLANLID [SMB1] | 1.81 |

(Q) Fill in: protein stability index of PSLKDSSSNGGGSAKPS [RPC53] is ___
(A) 2.82

(Q) Could you tell me which protein stability index is on file for SGEDAEEELWNSPSKGN [YIL149C/MLP2] ?
(A) 3.25

(Q) Which protein stability index is listed for LNELYQTQQDLPKVRYN [NSL1] ?
(A) 3.12

(Q) Which protein stability index value belongs to VEAIRRSNQYQRGKMHG [NUT2] ?
(A) 2.64

(Q) Which protein stability index is listed for PSRTRETATSERNASEV [GRR1] ?
(A) 3

(Q) I would be grateful if you could share the reported protein stability index for VVEDKPLLSKKERLVRD [SMB1] .
(A) 1.2

(Q) If you can, please state the reported protein stability index value of VRNVKGPVRENDILVLM [RPS28A] .
(A) 3.04

(Q) Returns the measured protein stability index for the input sequence. Input: VVGLGERVSPTDIEEGM [RPT1]
(A) 3.33

(Q) Sample YGNDEEVLFYEDNYNPK [RPN4] — what was its protein stability index?
(A) 3.2

(Q) # get_value(readout='protein stability index', item= DALLNSTTEHINIDDLL [YJL039C/NUP192] )
(A) 2.73

(Q) Quick check: protein stability index of VLKSHSNDFEEGSTIRY [YMR129W/POM152] ?
(A) 2.8

(Q) Need protein stability index, item PVVQVGIFIKILNDSLI [IRR1]
(A) 1.49

(Q) GET /values?readout=protein stability index&item= ASEREELALIEEAYDNP [PRP8]
(A) 3.23

(Q) Fill blank: measured protein stability index of the sequence FDSTAFNATVDETKGFD [MED2] is ____.
(A) 3.28

###

experiment: protein stability index of a GFP-peptide fusion (yeast GPS) (PSI 1-4); higher = more stable; sorted into four equal gates, so the index is relative within each strain; conditions: pdr5∆
reported.property: protein stability index
Respond using a number only.

| query.sequence | protein stability index |
| --- | --- |
| STQPSFAWSKPSTGSNL [YGR119C/NUP57] | 3.04 |
| GTGRSGQGAFGNMCRGG [RPL4A] | 3.37 |
| NTQDLLLLLSLFKKITN [YML103C/NUP188] | 1.3 |
| FQHADNSSMRYGYWFDC [AAR2] | 2.77 |
| VPSHVPQVLINRDPVKH [SIR2] | 3 |
| SEAEQIDTSKNLENMSI [YCG1] | 3.28 |

(Q) Given the sequence SSVKCFGPIKVELPTKE [FAS1] , what is its reported protein stability index?
(A) 1.98

###

assay: protein stability index of a GFP-peptide fusion (yeast GPS) (PSI 1-4); higher = more stable; sorted into four equal gates, so the index is relative within each strain; conditions: pdr5∆
Lab note: anything with protein stability index at or over 3 counts as Satisfied; the rest go in Not satisfied.

| query.sequence | class.label |
| --- | --- |
| NNDFKLSIDKVLKKPNR [RET1] | Not satisfied |
| NIKPVEQHHINNLKNSG [GAL11] | Not satisfied |
| VFLLTTRAGGLGINLVT [ISW2] | Not satisfied |

(Q) Form field: protein stability index at least 3? Entry: SLSEFARRRQPTDQNNQ [SNF2]
(A) Satisfied

(Q) Determine whether this sequence has protein stability index no lower than 3: LLIGCKLDQDDEIYIPI [CSI1]
(A) Satisfied

(Q) Is it the case that LSEAWRCWKANIPWDVP [PRP8] has protein stability index reaching or exceeding 3?
(A) Not satisfied

(Q) Identify whether the reported protein stability index of the following sequence is 3 or greater: QRETSGMIVISMENYHL [SRB8]
(A) Not satisfied

(Q) Check this sequence for protein stability index at or above 3: VDKNFDKLELYVLRNVL [MTW1]
(A) Not satisfied

(Q) Please indicate if the recorded protein stability index for YGKPTNQGVNELKYQRS [RPL15A] meets or exceeds 3.
(A) Satisfied

(Q) Decide: is the reported value of protein stability index for NFEKPKNSSQLLNEWSH [RPN5] equal to or greater than 3?
(A) Satisfied

(Q) Given AHLYMLEPSGSYWGYKG [PRE10] , state whether its protein stability index is at least 3.
(A) Not satisfied

src = the supplement of paper PMC9732359
